- Tested on: P388 leukemia ip, CD2F1 mice, survival T/C
- assayOverview: NCI In Vivo Anticancer Drug Screen. Data for tumor model P388 Leukemia (intraperitoneal) in CD2F1 (CDF1) mice
- measurementConditions: endpoint: median survival time; dose: 400.0 mg/kg/injection; schedule: Q01DX001 (ip); vehicle: saline with Tween-80; higher = longer survival
Inconclusive results and toxic doses are left out.
Property: T/C; scope: individual compounds
quantity: T/C

>>> print(df.to_string())
                                   compound                        experimentalsystem  reportedmeasurement
0  CC(C)C1=CCC2C(=C1)CCC1C(C)(C(N)=O)CCCC21C (configuration not stated)  P388 leukemia ip, CD2F1 mice, survival T/C     100 % of control
1  COc1ccc(/C=N/Nc2nnc3c4ccccc4c4ncccc4c3n2)cc1  P388 leukemia ip, CD2F1 mice, survival T/C     106 % of control
2  COC(c1ccccc1)C(Br)c1ccccc1 (configuration not stated)  P388 leukemia ip, CD2F1 mice, survival T/C     104 % of control
3  O=C(C(O)C(O)C(O)CO)n1cnc2c1ncn1c(=O)cc(CI)nc21 (configuration not stated)  P388 leukemia ip, CD2F1 mice, survival T/C     111 % of control
4          CP(=Nc1ccccc1)(c1ccccc1)c1ccccc1  P388 leukemia ip, CD2F1 mice, survival T/C     102 % of control
5  COC(=O)c1ccccc1N=NN(C)CC1OC2OC(C)(C)OC2C1OC (configuration not stated)  P388 leukemia ip, CD2F1 mice, survival T/C      97 % of control
6                       Nn1cnc2nc[nH]c2c1=O  P388 leukemia ip, CD2F1 mice, survival T/C      95 % of control

Where do the numbers come from? From PubChem BioAssay AID330.
